Catalogue of interaction score readings, one per entry.
Biological target: T1, 4H570-bA
T1 chain: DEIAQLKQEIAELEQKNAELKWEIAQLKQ
Test: two-hybrid library CCNG1;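 note: natural log of median RNA to DNA barcode read ratio; higher means stronger binding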
Form: value (number only, do not type unit).

DKNAQLEQKIAELKQENAELEWKIAQLKQ [4H3414-bA]: 0.386

# binder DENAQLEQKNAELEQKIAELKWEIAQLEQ [4H1449-bA] ; its interaction score = -1.93

// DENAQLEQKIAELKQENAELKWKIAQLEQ [4H1373-bA] : interaction score value = -0.799

Noted for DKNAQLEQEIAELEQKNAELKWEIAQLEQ [4H3129-bA] : its interaction score reads -1.13

These data points were gathered from paper PMC10397247.
